Data credit: ChEMBL document CHEMBL3988442

Tested on: Wolbachia pipientis
Assay: Anti-Wolbachia Cell-Based Screen
Assay type: functional
Design: scale not given: in the data most compounds retested in dose-response had high values
Conditions: 5 µM
In all, about 48,000 compounds went through this assay and about 13,000 (27%) showed an effect of 50% or more. This is one part of the list.
observable: Percent Effect
Answer with the value and then the unit.

Answered examples (10):
molecule	Percent Effect
CCOc1ncnc2c1CCN(C(=O)c1ccncc1F)CC2.O=C(O)C(F)(F)F	-6.025%
CN(C)CCN1C(=O)CCC12CCCN(C(=O)c1ccncc1F)C2.O=C(O)C(F)(F)F (stereo not drawn)	122.1%
Cc1nn(C)cc1-c1cc(-c2cn(C)nc2C)n(CC(=O)NC2CC2)n1	89.98%
Cc1cnc(C(=O)N2CCOCC2c2ccccc2)cn1 (stereo not drawn)	87.18%
Cc1nc(C)n(C2CCCN(C(=O)CCc3ccncc3)C2)n1 (stereo not drawn)	4.522%
O=C(O)C(F)(F)F.O=C1CC(c2ccccc2)C2(CCN(C(=O)c3ccncc3F)CC2)N1 (stereo not drawn)	7.558%
Cc1noc([C@@H]2C[C@H]3OCC[C@H]3N(S(=O)(=O)c3ccccc3)C2)n1	116%
Cc1noc([C@@H]2C[C@H]3OCC[C@H]3N(Cc3ccoc3)C2)n1	14.51%
Cc1c(-c2cc(-c3cnn(C)c3C)n(CC(=O)NC3CC3)n2)cnn1C	78.99%
COc1ccc(-c2noc([C@@H](C)NS(=O)(=O)CC(C)C)c2C(=O)O)cc1	-11.95%

Task: State the measured Percent Effect (Wolbachia pipientis) of Cc1ccccc1-c1cc(NC(=O)NC2CC2)n(CCO)n1
Result: -65.06%

Task: For Wolbachia pipientis, give Percent Effect of the listed molecule: Cn1cc(-c2cc(-c3cnn(C)c3)n(CC(=O)NC3CC3)n2)cn1
Result: 98.73%

Task: Recall the reported Percent Effect of c1ccc2c(c1)OCCC2NCc1ccc(N2CCOCC2)cc1 (stereo not drawn) when tested on Wolbachia pipientis.
Result: 6.608%

Task: Please report the measured Percent Effect for Cc1cnn(C2CCCN(C(=O)CCCNc3ncccn3)C2)c1 (stereo not drawn) tested on Wolbachia pipientis.
Result: 0.4653%

Task: Tell me Percent Effect of CC1CN(C(=O)NCc2cnn(-c3ccc(F)cc3F)c2)CCO1 (stereo not drawn) when tested on Wolbachia pipientis.
Result: -3.691%

Task: Please indicate recorded Percent Effect of CN1C(=O)CCC12CCCN(C(=O)c1ccncc1F)C2.O=C(O)C(F)(F)F (stereo not drawn) measured with Wolbachia pipientis.
Result: 113.9%

Task: Give Percent Effect for this entry on Wolbachia pipientis: Cc1ccsc1C(Cc1ccccc1)NC(=O)CSCC(N)=O (stereo not drawn)
Result: -6.461%

Task: Provide measured Percent Effect on Wolbachia pipientis for O=C(c1cnccn1)N1CCc2ncnc(C3CCOC3)c2CC1 (stereo not drawn) please.
Result: -0.4646%

Task: State Percent Effect on Wolbachia pipientis. Entry: Cc1cc(C)c2[nH]c(=O)c(CN3CCCC4(C3)CN(C)C(=O)O4)cc2c1 (stereo not drawn)
Result: -2.953%

Task: Tell me its Percent Effect on Wolbachia pipientis: Cc1cn(CC(=O)NC2CCC(C(=O)O)CC2)c2ccccc12 (stereo not drawn)
Result: -7.822%

Task: Tell me Percent Effect of COc1ccc(/C=C/CN2CCC3(C2)CN(C)C(=O)O3)cc1 (stereo not drawn) when tested on Wolbachia pipientis.
Result: -32.82%
